Test: kanamycin survival loss of SKKanGAS strain – BacTiter-Glo luminescence, streptokinase expression inhibitor project, primary screen (AID 1662);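 also: strain carries kanamycin resistance gene driven by streptokinase promoter and grows in 40 µg/ml kanamycin; loss of luminescence reflects streptokinase promoter inhibition or plain growth inhibition; 0% = median of DMSO wells and 100% = positive control at its reference dose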
Conditions: S. pyogenes SKKanGAS, kanamycin growth, 6 h, at 7.5 µM
Among all 300,000 compounds or so, about 4,000 (1.3%) were called active.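 The calls were made as follows: active = mean replicate score, as percent of positive control median, at least 50; inconclusive = mean below 50 but one replicate at or above 50; inactive = mean and every replicate below 50.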 This is one part of a sample in which actives are shown more often than they occur.
Just give me one of these, please: 1 (active), 0 (inactive)

Task: State the result this test recorded for Cc1cc(N=Nc2ccc3ccccc3c2)ccc1O .
Result: 1

Task: Hey, what did the test say about CCC(C)C(=O)Nc1cc([N+](=O)[O-])ccc1Cl (stereo unspecified) ?
Result: 0

Task: What was the test verdict on Cc1cc(NC(=O)CSc2nc3cc(Cl)ccc3c(=O)n2Cc2ccco2)no1 ?
Result: 0

Task: Dear all, I need the recorded test outcome for COc1cccc(CNC(=O)c2nnn(CC(=O)Nc3cc(C)ccc3C)c2N)c1 , thank you.
Result: 0

Task: For this compound, state the assay outcome: COc1cc2nc(CN(C)Cc3ccc(F)cc3)[nH]c(=O)c2cc1OC
Result: 0

Task: Test call for this compound, please: CC(C)(C)n1nnc(CCc2nnn(C(C)(C)C)n2)n1
Result: 0

Task: What classification did Cc1sc2nc(SCCO)n(-c3ccccc3)c(=O)c2c1C end up with in this test?
Result: 0

Task: Query: recorded result category for C=CCC(C(=O)c1ccccc1)[N+](C)(C)CC=C (stereo unspecified) in this test
Result: 0

Task: Recorded test call requested for O=C(COC(=O)c1ccccc1SCC(=O)N1CCCC1)Nc1ccccc1OC(F)F
Result: 0

Task: What did the test return for COc1ccccc1NC(=O)CSc1nc2sc(C)c(C)c2c(=O)n1Cc1ccco1 ?
Result: 1

Task: Each compound tested received a call. Report the one for Cc1cccc(NC(=O)C2CCN(C(=O)NC3CCCCC3)CC2)c1 .
Result: 0

---

Experiment: kanamycin survival loss of SKKanGAS strain – BacTiter-Glo luminescence, streptokinase expression inhibitor project, primary screen (AID 1662)
Details: S. pyogenes SKKanGAS, kanamycin growth, 6 h, at 7.5 µM
The whole screen tested about 300,000 compounds, of which about 4,000 (1.3%) were called active.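 How the source made its calls: active means mean replicate score, as percent of positive control median, at least 50; inconclusive means mean below 50 but one replicate at or above 50; inactive means mean and every replicate below 50.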 What follows is part of a selection rich in actives, with near analogues and random picks from the rest.
API: response.call in label 1 (active), label 0 (inactive)

Task: Can you look up the reported call for Cc1ccc2nc(-c3ccncc3)cc(C(=O)Nc3ccncc3)c2c1 for me?
Result: label 0

Task: Assay result, entry CC[N+]1(CC)CC2=Cc3ccccc3CC2C1 (stereo unspecified) — outcome?
Result: label 0

Task: # lookup: test call for O=C(Nc1ccccc1Cl)/C(Cl)=C(\Cl)S(=O)c1ccccc1 (stereo unspecified)
Result: label 1

Task: Kindly provide the recorded test outcome for the following molecule: Cc1ccc2nc(Nc3ccccc3)cc(C)c2c1
Result: label 0

Task: For O=[N+]([O-])c1ccc(N(CCO)Cc2ccccc2)c([N+](=O)[O-])c1 , what call appears in the results of this test?
Result: label 0

Task: Identify the outcome logged in this assay for the molecule shown: COCCN(CCOC)C(=S)Nc1ccccc1Cl
Result: label 0

---

I'd be grateful if you could share measured inhibition for these entries.
Test: kanamycin survival loss of SKKanGAS strain – BacTiter-Glo luminescence, streptokinase expression inhibitor project, primary screen (AID 1662);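 also: strain carries kanamycin resistance gene driven by streptokinase promoter and grows in 40 µg/ml kanamycin; loss of luminescence reflects streptokinase promoter inhibition or plain growth inhibition; 0% = median of DMSO wells and 100% = positive control at its reference dose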
Conditions: S. pyogenes SKKanGAS, kanamycin growth, 6 h, at 7.5 µM, hits give high values
Among all 300,000 compounds or so, about 4,000 (1.3%) were called active. This is one part of a sample in which actives are shown more often than they occur.

# inhibition of CSCCC(NS(=O)(=O)c1ccccc1F)C(=O)N1CC=C(c2ccccc2)CC1 (configuration not stated) = -1.43% (inactive)

For this molecule ( CCCNC(=O)C(=O)Nc1cc2c3c(c1)CCC(=O)N3CCC2 ), measured inhibition is -4.99% (inactive)

Lab note: CCn1c(SCC(=O)NC2CC2)nnc1-c1ccccn1 gave inhibition of 0.558% (inactive)

Given item Cc1ccc(CNCc2ccc3c(c2)OCO3)c(C)c1 , the value recorded as its inhibition is 0.677% (inactive)

Entry COCC(C)n1c(C)cc(C(=O)CSc2cc(C)c3ccccc3n2)c1C (configuration not stated) — recorded inhibition = 2.07% (inactive)

// field: inhibition; key: CN(C)c1ccc(/C=N/N(Cc2ccccc2)c2ccccc2)cc1 ; value = -5.9% (inactive)

Lab book: inhibition of COc1cc(/C=N/Nc2nc3ccccc3s2)ccc1O noted as -7.58% (inactive)

What the record says about COCC1CCN(C(=O)CCc2nnc(C3(c4ccc(Cl)cc4)CCC3)o2)C1 (configuration not stated) : inhibition is 49.5% (active)

Given item Cc1ccc(S(=O)(=O)c2ccc(Cl)cc2)cc1S(=O)(=O)NC(C(=O)O)C(C)C (configuration not stated) , the value recorded as its inhibition is 0.0508% (inactive)

# inhibition (molecule: O=C(C[n+]1ccccc1)N/N=C/c1ccc(O)cc1 ) is -9.65% (inactive)

Consider Cc1cc(N)n2nc(-c3ccc(C(C)(C)C)cc3)cc2n1 . Its measured inhibition is 38.2% (inactive)

Looking up c1ccc2sc(NN=C3CCCC3)nc2c1 , I found its inhibition recorded as 18.5% (inactive)

---

Test: kanamycin survival loss of SKKanGAS strain – BacTiter-Glo luminescence, streptokinase expression inhibitor project, primary screen (AID 1662);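 also: strain carries kanamycin resistance gene driven by streptokinase promoter and grows in 40 µg/ml kanamycin; loss of luminescence reflects streptokinase promoter inhibition or plain growth inhibition; 0% = median of DMSO wells and 100% = positive control at its reference dose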
Conditions: S. pyogenes SKKanGAS, kanamycin growth, 6 h, at 7.5 µM, hits give high values
Hit rate of the full screen: of about 300,000 compounds, about 4,000 (1.3%) were called active. For the sample, actives were picked, then their nearest neighbours and some compounds at random.
Give inhibition for every item shown.
Record the value in %, omitting the unit from your answer.

Quick note, inhibition for Cc1cc(Cl)c2oc(C(=O)N(C)C(C)c3ccccn3)c(C)c2c1 (configuration not stated) landed at 8.03

Record CCOc1ccc(C(=O)NC(=S)Nc2ccc(NC(=O)C(C)C)cc2)cc1[N+](=O)[O-] . Reported inhibition: 19.7

get_value(item= O=C(Nc1ccc2ccccc2c1)/C(=C/c1cccc(Br)c1)NC(=O)c1ccco1 , readout=inhibition) returns 14.5

Per the record, COc1ccc(NC(=O)CN2C(=O)CSc3ccc(S(=O)(=O)N4CCC(C)CC4)cc32)cc1 has inhibition of 10.8

The reported inhibition of the compound CC(C)c1ccccc1OCC(O)CN(CC(O)COc1cccc2ccccc12)C(C)C (configuration not stated) was 97.9

Documented inhibition of CCCc1ccc(OCCNC(=O)c2ccco2)cc1 : -5.79

Given item COc1cc(N/C=C2\CC(=O)NC(C)=C2C#N)cc(OC)c1OC , the value recorded as its inhibition is -0.282

// recorded inhibition for O=C(/C=C/c1ccc(Cl)cc1)NCCCn1ccnc1 : -2.11

// inhibition lookup, compound = COc1ccc2[nH]c3c(=O)n(Cc4ccco4)cnc3c2c1 , result: 17.1

Item: CC(Oc1ccc2ccccc2c1)C(=O)NNC(=S)NC(=O)c1ccco1 (configuration not stated) | inhibition: 128

# inhibition (compound: Cc1cc(C)c(NC(=O)C[N+](C)(C)CC(O)COc2cccc3ccccc23)c(C)c1 (configuration not stated) ) is 29

Item: Oc1c(Cl)cc(Cl)c(Cl)c1Cc1c(O)c(Cl)cc(Cl)c1Cl | inhibition: 109

GET /value?item= CSCCC(NC(=O)COc1ccccc1)C(=O)OCC(=O)c1cc2ccccc2o1 (configuration not stated) &field=inhibition returns -0.0582

In plain terms, Cc1ccc(C(=O)NNC(=O)C(C)Oc2ccc3ccccc3c2)o1 (configuration not stated) has a documented inhibition of -4.95

Given item CCc1c(C)c2ccc(OC3CCCCC3=O)cc2oc1=O (configuration not stated) , the value recorded as its inhibition is -6.62

get_value(item= COc1ccc(-c2oc3ncn(Cc4ccco4)c(=N)c3c2-c2ccc(OC)cc2)cc1 , readout=inhibition) returns 55

Lab note: measured inhibition of CS(=O)(=O)N1CCN(CC(=O)NC2CCCC2)CC1 was -2.39

Noted for c1ccc(-c2oc3ncnc(N4CCOCC4)c3c2-c2ccccc2)cc1 : its inhibition reads -2.29

inhibition for Cc1cc(Cl)c2oc(C(=O)NC(C)c3ccncn3)c(C)c2c1 (configuration not stated) is -5.52

Reported inhibition of CCN(CCn1cccn1)C(=O)CC1C(=O)NCCN1Cc1cccc(OC)c1OC (configuration not stated) : -6.29

Short answer for Cc1cccc(-c2nc3ccccc3c(=O)n2NC(=O)Cc2ccc(Cl)cc2)c1 : inhibition was -2.71

# compound Cc1ccsc1C(=O)OCC(=O)c1cc(C)n(CC2CCCO2)c1C (configuration not stated) ; its inhibition = 9.42

---

Hi there, I'd appreciate the recorded inhibition for every entry that follows.
Test: kanamycin survival loss of SKKanGAS strain – BacTiter-Glo luminescence, streptokinase expression inhibitor project, primary screen (AID 1662);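 also: strain carries kanamycin resistance gene driven by streptokinase promoter and grows in 40 µg/ml kanamycin; loss of luminescence reflects streptokinase promoter inhibition or plain growth inhibition; 0% = median of DMSO wells and 100% = positive control at its reference dose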
Conditions: S. pyogenes SKKanGAS, kanamycin growth, 6 h, at 7.5 µM, hits give high values
About 4,000 (1.3%) of roughly 300,000 compounds were called active. The sample holds actives, similar compounds and a random draw of the others, so the mix is not that of the screen.
Response body: numeric value in %, unit text excluded.

Per the records, this compound ( O=[N+]([O-])/C=C/c1ccc2c(ccn2Cc2ccccc2)c1 ) has inhibition equal to 81

Per the record, O=c1c([N+](=O)[O-])cc(C(F)(F)F)cn1Cc1cccc(Cl)c1 has inhibition of -8.03

Form field inhibition, entry Nc1cccc2c1C(=O)N(Cc1nnc(-c3ccccc3Br)o1)C2=O : -13.7

In plain terms, Cc1cc2c(c(=O)n1C)C(C(C)C)C(C#N)=C(N)O2 (stereo unspecified) has a documented inhibition of -0.711

Lab book: inhibition of CCOC(=O)N1CCN(c2cc(C)c([N+](=O)[O-])cc2F)CC1 noted as 15.6

Entry CCc1ccc(Oc2nc([N+](=O)[O-])nn2C)cc1 ; inhibition = 2.57
